Every entry's value here was drawn from PubChem BioAssay.

# test: viability profiling in RPMI8226 myeloma cells – cell-based, resazurin fluorescence, basal, 24 h, PK04 Diversity Set, profiling panel (AID 1180);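 also: RPMI8826 multiple myeloma cell line at 5000 cells per well; test concentration not given here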
# conditionLabel: higher = more signal
quantityMeasured: z-score

| compound | quantityMeasured | measurement |
| --- | --- | --- |
| CC(C)(C)OC(=O)COc1cccc(C(=O)CCN2CCOCC2)c1 | z-score | -3.51 |
| Cc1ccc(S[C@]2(C(=O)O)CC(=O)N(C3CCCCC3)[C@@H]2c2ccc(CO)cc2I)cc1 | z-score | -0.74 |
| CCOC(=O)C1=C[C@@H](c2ccccc2)N(S(=O)(=O)c2ccc(C)cc2)[C@H]1c1ccc(OC)cc1 | z-score | -1.24 |
| CN(C)C(=O)[C@@]1(Cc2ccccc2CN=[N+]=[N-])N=C(c2ccc(OCCCO)cc2)O[C@H]1c1ccccc1N=[N+]=[N-] | z-score | -3.85 |
| CCCNC(=O)[C@@H]1c2ccccc2C(=O)N(Cc2ccc(OC(F)(F)F)cc2)[C@H]1c1ccc(CO)cc1 | z-score | 0.584 |
| C[N+](C)(C)CCCCCCNC(=O)[C@@H]1C[C@@H]2C(=O)N3CCC[C@H]3C(=O)N2[C@@H]1c1ccc(O)cc1 | z-score | 0.441 |
| NC(=O)[C@H]1[C@@H]2C(=O)O[C@@H](c3ccccc3)[C@@H](c3ccccc3)N2[C@@H](c2ccc(OCCO)cc2)[C@]12C(=O)Nc1ccc(C#CCCO)cc12 | z-score | -0.169 |
| O=C1OCCC=C[C@H]2OC34C=CCN(Cn5nnc6ccccc65)C(=O)[C@H]3N(CCCO)C(=O)[C@@H]4C12 (stereo partly drawn) | z-score | -0.997 |

----------
// z-score lookup, one value per entry
# test: blood-stage malaria parasite viability loss – strain 3D7, DAPI fluorescence, 100 nL, primary screen (AID 1184);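 also: parasites grown inside human red blood cells in medium with human serum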
# conditionLabel: P. falciparum 3D7 growth, 3 d, higher = more signal

| molecule | z-score |
| --- | --- |
| CC(C)N1CC=CC23O[C@@H]4C=CCCOC(=O)C4[C@H]2C(=O)N(CCCO)[C@@H]3C1=O (stereo not given in full) | -2.07 |
| CCOC(=O)C1=C[C@@H](C(C)(C)C)N(S(=O)(=O)c2ccc(C)cc2)[C@H]1c1cccc2ccccc12 | -1.93 |
| C=CCOC(=O)[C@@H]1[C@H]2C(=O)O[C@H](c3ccccc3)[C@H](c3ccccc3)N2[C@H](c2ccc(OCCOC(=O)[C@@H]3C[C@@H]4C(=O)N[C@@H](CCCC[N+](C)(C)C)C(=O)N4[C@@H]3c3ccc(O)cc3)cc2)[C@@]12C(=O)Nc1ccc(I)cc12 | -1.11 |
| COC(=O)C1=CC(CCCO)=CC(c2ccc(CN3CCCC3)cc2)N(Cc2cccc(OC(F)(F)F)c2)C=C1C(=O)OC (stereo not given) | -2.09 |
| CCN(CC)c1ccc(N2CC=CC34O[C@@H]5/C=C\CCCOC(=O)C5[C@H]3C(=O)N(C(C)CO)[C@@H]4C2=O)cc1 (stereo not given in full) | 0.226 |
| COc1ccc(C#Cc2ccc3c(c2)[C@]2(C(=O)N3)[C@H](c3ccc(O)cc3)N3[C@H](c4ccccc4)[C@H](c4ccccc4)OC(=O)[C@H]3[C@@H]2C(=O)Nc2nc3ccccc3s2)cc1 | -1.31 |
| COc1ccc([C@H]2OC[C@@H]3C[C@H](Cc4ccccc4)C(=O)N32)cc1 | 0.877 |
| COc1ccc([Si](C)(C)[C@H]2[C@H](CC(=O)N3CCC[C@H]3CO)O[C@@]3(C(=O)N(Cc4ccc(N5CCOC5=O)cc4)c4ccccc43)[C@@H]2C)cc1 | -0.738 |
| O=C1C[C@]2(c3ccc([N+](=O)[O-])cc3)C(=O)N(C3CC3)c3cc(CO)ccc3[C@H]2N1CC12CC3CC(CC(C3)C1)C2 | -1.38 |
| CCOC(=O)C[C@H]1[C@H](OC(=O)c2cc3ccccc3oc2=O)[C@@H](NC(=O)c2ccccc2)c2cc(OCCCO)ccc2N1C(=O)c1ccccc1 | -1.66 |
| COc1cc(NN2C(C(O)c3ccc(N(C)C)cc3)C=CC3C(=O)N(c4ccccc4)C(=O)C32)cc(OC)c1OC (stereo not given) | -0.289 |
| CCCCNC(=O)c1ccc(C#CC(C)(C)C)c(OC(C)=O)c1 | -1.74 |
| [N-]=[N+]=Nc1ccccc1C[C@]1(C(=O)O)COC(c2ccc(OCCCO)cc2)=N1 | -1.54 |
| C=CC[C@@]1(C(=O)NCCCOC)N=C(c2ccc(OCCCO)cc2)O[C@@H]1c1ccccc1 | -1.95 |
| O=C1C2C=CC(C(O)C3CC=CCC3)N(Nc3ccccc3)C2C(=O)N1c1ccccc1 (stereo not given) | -0.653 |
| COC(=O)C1(CC(C)C)C=C2C(=C(c3ccccc3)C(=O)C2C)CN1 (stereo not given) | -0.104 |
| CCCCC(=C=CC[C@H](O)c1ccc(OCCO)cc1)CCO | -1.17 |
| COc1cc2c(cc1O)C=[N+](Cc1sc3ccccc3c1Cl)CC2 | -1.84 |
| O=C1O[C@@H](c2ccccc2)[C@@H](c2ccccc2)N2[C@@H](c3ccc(OCCO)cc3)[C@]3(C(=O)Nc4ccc(C#CC5=CCCCC5)cc43)[C@@H](C(=O)NC[C@H](O)c3ccccc3)[C@H]12 | -1.35 |
| COC(=O)[C@@]1(Cc2ccccc2)[C@H]2c3cc(C(=O)N(C)C)n(Cc4ccc(C)o4)c3C[C@H]2CN1C(=O)c1ccccc1 | -1.81 |
| CCCCC(CC)C(O)C1C=CC2C(=O)N(c3ccccc3)C(=O)C2N1Nc1ccccc1F (stereo not given) | -0.579 |
| CCCCN1CC=CC23O[C@@H]4/C=C\CCC(C)OC(=O)C4[C@H]2C(=O)N(CCCO)[C@@H]3C1=O (stereo not given in full) | 0.544 |
| COCCCNC(=O)[C@@]1(CCC(=O)OC(C)(C)C)N=C(c2ccc(OCCCO)cc2)O[C@H]1c1ccccc1N=[N+]=[N-] | -2.39 |
| N[C@@H](Cc1ccccc1)C(=O)NCc1cn(Cc2ccccc2)nn1 | -0.581 |
| CCCC=C(CCC)[C@@H](NP(=O)(c1ccccc1)c1ccccc1)c1ccc(-c2ccccc2)cc1 | 0.0851 |
| CC(C)[Si](C#CCCCC#N)(O[C@H](c1ccccc1)c1cn(Cc2ccccc2)nn1)C(C)C | 0.559 |
| C=CCNC(=O)[C@@H]1[C@H]2C(=O)O[C@H](c3ccccc3)[C@H](c3ccccc3)N2[C@H](c2ccc(O)cc2)[C@@]12C(=O)N(C(=O)OCCOC)c1ccc(C#CC3=CCCCC3)cc12 | 0.608 |
| C=C(COC)/C(=C/C[C@H](OC(=O)c1ccncc1)c1ccccc1OCCO)c1cc(C(=O)OC)ccc1OC | -2.95 |
| CC(C)C(CO)N1C(=O)[C@@H]2C3C(=O)OCCC/C=C\[C@H]3OC23C=CCN(c2ccc4ccccc4c2)C(=O)[C@@H]13 (stereo not given in full) | 0.674 |
| Cn1cccc1C(O)C1C=CC2C(=O)N(c3ccccc3)C(=O)C2N1Nc1ccccc1 (stereo not given) | -0.255 |
